test system: P. aeruginosa Ps296 expressing VIM-2; assay: Broth microdilution MIC assay, partner meropenem; type: cell-based; conditions: Pseudomonas aeruginosa, read-out: MIC of Exemplary Compounds in presence of fixed β-lactams, Fixed Mero, P. aerug. Ps296 VIM-2
ENDPOINT: MIC

* O=C(N[C@H]1Cc2cccc(C(=O)O)c2OB1O)c1csc2c1CCNC2 | > 32 µg/mL
* O=C(N[C@H]1Cc2cccc(C(=O)O)c2OB1O)c1ccc2ncccc2c1 | > 32 µg/mL
* CN1Cc2ccc(CC(=O)N[C@H]3Cc4cccc(C(=O)O)c4OB3O)cc2C1 | < 4 µg/mL

Reported MIC for NC1=Nc2cc(C(=O)N[C@H]3Cc4cccc(C(=O)O)c4OB3O)ccc2CN1 : what is it?
< 4 µg/mL

Reported MIC for O=C(O)c1cccc2c1OB(O)[C@@H](NC(=O)C1(c3ccccc3)CCNCC1)C2 : what is it?
8 to 32 µg/mL

Reported MIC for O=C(Cc1cnc2c(c1)CCCN2)N[C@H]1Cc2cccc(C(=O)O)c2OB1O : what is it?
8 to 32 µg/mL

Origin of measurements: patent US9403850B2
